Catalogue of molecules with associated growth
Test system: HOP-92 NSCLC
Experiment: NCI-60 one-dose screen, 48 h (100 = growth as untreated, 0 = no growth, -100 = all killed)
Details: 10 µM unless noted
Method: Growth inhibition of the HOP-92 human Non-Small Cell Lung tumor cell line is measured as a screen for anti-cancer activity. Cells are grown in 96 well plates and exposed to the test compound for 48 hours. Compounds are tested at a single concentration, which is 10^-5 M for most compounds. The reported endpoint is percent growth (GI% or GIPRCNT), where numbers from 0 - 100% represent growth inhibition, and numbers from -100% - 0 represent cell death. […]
Compounds without any hit were thinned out: in the full panel of roughly 83,000, 20% have a hit. The source made the active and inactive calls. Rule for the calls: active = growth percent below 10; inactive = the rest.
readout: growth

[[record]]
molecule = "O=C(O)CNC(=O)CN1C(=O)c2ccccc2C1=O"
readout = "growth"
result = "97.4% (inactive)"

[[record]]
molecule = "O=C(c1ccccc1)N1N=C(c2ccc(-n3ccc(C(F)(F)F)n3)cc2)CC1c1ccc[nH]1 (centres undefined)"
readout = "growth"
result = "113% (inactive)"

[[record]]
molecule = "O=C1CCCCCCCCC(O)C(O)CCCC(c2cccs2)O1 (centres undefined)"
readout = "growth"
result = "82.7% (inactive)"

[[record]]
molecule = "Cc1c2c(cc[n+]1Cc1ccccc1)c1ccc(OCc3ccccc3)cc1n2Cc1ccccc1"
readout = "growth"
result = "-67.9% (active)"

[[record]]
molecule = "CC(C)(O)C1CCCN1C(=O)c1ccccc1I (centres undefined)"
readout = "growth"
result = "58.6% (inactive)"

[[record]]
molecule = "CC(=O)[C@@H]1CC[C@]2(C(=O)n3ccnc3)CC[C@]3(C)[C@H](CC[C@@H]4[C@@]5(C)Cc6c([nH]c7ccccc67)C(C)(C)[C@@H]5CC[C@]43C)[C@@H]12"
readout = "growth"
result = "93.9% (inactive)"

[[record]]
molecule = "COc1c(Cl)cc(Cl)c2ccc(C=C3C(=O)NC(=S)NC3=O)nc12"
readout = "growth"
result = "116% (inactive)"

[[record]]
molecule = "O=C(Nc1nc2ccc(C(=O)N3CCN(c4ccc(Cl)c(Cl)c4)CC3)cc2s1)c1ccc(NCCc2ccccc2)c([N+](=O)[O-])c1"
readout = "growth"
result = "91.7% (inactive)"

[[record]]
molecule = "COc1cccc(C(Cc2ccccc2)Nc2ccccc2)c1OC (centres undefined)"
readout = "growth"
result = "77.5% (inactive)"


All values here come from PubChem BioAssay (NCI).
